Taken from PubChem BioAssay (Tox21).

Experiment: qHTS assay to identify small molecule agonists of the vitamin D receptor (VDR) signaling pathway - cell viability counter screen (AID 743224); also: nearly all actives have a fitted effect of over 50% in size
Conditions: VDR-bla HEK293T viability, CellTiter-Glo luminescence, 16 h; series mostly up to 62.6 µM
From the text: U.S. Tox21 Program National Center for Advancing Translational Sciences [NCATS] NIH Chemical Genomics Center [NCGC] U.S. Environmental Protection Agency [EPA] National Institutes of Environmental Health Sciences [NIEHS] National Toxicology Program [NTP] U.S. Food and Drug Administration [FDA] Tox21 Assay Overview: The vitamin D receptor (VDR), a member of nuclear hormone receptor superfamily, plays a critical role in calcium homeostasis and bone metabolism. […]
Results filed as inconclusive are left out. The source made the active and inactive calls. Calls follow the shape of the dose curve; as a rule, active = well fitted cell-killing curve with a large enough effect in the repeat runs; inconclusive = weak or mixed curves, or effect the other way; inactive = no such curve, though single readings can be large or run the other way.
Field 'call' accepts active, inactive

See these solved cases before continuing.
C[C@]12C/C(=C/O)C(=O)C[C@@H]1CC[C@@H]1[C@@H]2CC[C@@]2(C)[C@H]1CC[C@]2(C)O = inactive
CC#C[C@]1(O)CC[C@H]2[C@@H]3C[C@H](C)C4=CC(=O)CC[C@]4(C)[C@H]3CC[C@@]21C = inactive
O=NN(CCO)CCO = inactive
ClC1=C(Cl)[C@]2(Cl)[C@@H]3[C@H]4C[C@H]([C@@H]5O[C@H]45)[C@@H]3[C@@]1(Cl)C2(Cl)Cl = active
CC(=O)[O-].CC(=O)[O-].CC(=O)[O-].[Cr+3] = inactive
Nc1ccccc1-c1ccccc1 = inactive
O=S(=O)(NS(=O)(=O)C(F)(F)F)C(F)(F)F = inactive
Oc1ccc(Cl)c(Cl)c1 = inactive

[ask] # fetch the recorded call for Nc1nc(N)nc(Cl)n1 here
[reply] inactive

[ask] Please give the result for CCCCC(CC)COC(=O)OOC(C)(C)C (stereo unspecified) too.
[reply] inactive

[ask] Further, for C[C@@H]1CC2=CC(=O)CC[C@@H]2[C@H]2CC[C@@]3(C)[C@@H](CC[C@]3(C)O)[C@@H]21 ?
[reply] inactive
